Give %Inh for every item shown.
System: MST1R
Conditions: concentration: 1 μM, replicates: in singlicate; n = 1;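 note: KINOMEscan kinase panel screen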

Problem: Suppose we examine the molecule `O=C(Nc1ccc2c(c1)OCO2)NC1CCN(c2ccnc(NCc3ccc(F)cc3)n2)CC1` ; what %Inh value has been reported?
Result: 17%

Problem: Suppose we examine the molecule `O=c1cc(N2CCOCC2)nc2n(Cc3ccc(F)c(Cl)c3)ccn12` ; what %Inh value has been reported?
Result: 13%

Problem: Suppose we examine the molecule `O=C(Nc1n[nH]c2cc(-c3ccccc3F)ccc12)C1CC1` ; what %Inh value has been reported?
Result: 0%

---

Tested on: PIK3C2G
Conditions: concentration: 1 μM, replicates: in singlicate; n = 1
Under this convention, TRUE denotes %Inh strictly below 10% and FALSE denotes %Inh at or above 10%.

Problem: Here's an entry: `Cc1nnc(-c2ccc(C)c(-c3ccc(C(=O)O)cc3)c2)o1` . Is its %Inh below 10%?
Result: TRUE

Problem: Here's an entry: `CCC(=O)c1c(-c2ccccc2)c2cc(Cl)ccc2c(=O)n1Cc1cc(S(C)(=O)=O)n(CC(N)=O)n1` . Is its %Inh below 10%?
Result: TRUE

Problem: Here's an entry: `Cc1cccc(-c2cc(-c3c[nH]nc3-c3ccccn3)ccn2)c1` . Is its %Inh below 10%?
Result: TRUE

Problem: Here's an entry: COc1cc(Nc2nccc(N3CCC(NC(=O)C4COc5ccccc5O4)C3)n2)cc(OC)c1OC (stereo not shown) . Is its %Inh below 10%?
Result: TRUE

Problem: Here's an entry: `COc1cc(Nc2ccnc3ccc(C(F)(F)F)cc23)cc(OC)c1OC` . Is its %Inh below 10%?
Result: TRUE

Problem: Here's an entry: `COc1ccc(-c2coc3ccc(-c4nnc(SCc5cccc(C#N)c5)o4)cc23)cc1` . Is its %Inh below 10%?
Result: TRUE

Problem: Here's an entry: `CCc1nc(-c2cccc(C)c2)c(-c2ccncc2)s1` . Is its %Inh below 10%?
Result: TRUE

Problem: Here's an entry: `COc1cccc(-n2cnc3c(N)ncnc32)c1` . Is its %Inh below 10%?
Result: FALSE

Problem: Here's an entry: `CCC(=O)c1c(-c2ccccc2)c2cc(Cl)ccc2c(=O)n1Cc1cc(S(C)(=O)=O)n(CC(F)F)n1` . Is its %Inh below 10%?
Result: TRUE

Problem: Here's an entry: `CCn1c(-c2nonc2N)nc2ccccc21` . Is its %Inh below 10%?
Result: TRUE

Problem: Here's an entry: `Cc1ccccc1COc1cc(-n2cnc3cc(Cl)ccc32)sc1C(N)=O` . Is its %Inh below 10%?
Result: FALSE

Problem: Here's an entry: `O=C1NC(=O)C(c2ccccc2)=C1Nc1cccc(O)c1` . Is its %Inh below 10%?
Result: TRUE

Problem: Here's an entry: `Cc1nn2c(=O)cc(N3CCOCC3)nc2n1Cc1cccc(Cl)c1Cl` . Is its %Inh below 10%?
Result: FALSE

Problem: Here's an entry: `COc1ccc(-c2cc3c(C)nc(N)nc3n([C@H]3CC[C@H](O)CC3)c2=O)cn1` . Is its %Inh below 10%?
Result: FALSE

Problem: Here's an entry: `Cc1ccc(Oc2ccc(Nc3ncnc4cc[nH]c34)cc2C)cn1` . Is its %Inh below 10%?
Result: FALSE

Problem: Here's an entry: `CCC(=O)c1c(-c2ccccc2)c2cc(Cl)ccc2c(=O)n1Cc1cc(S(C)(=O)=O)n(CCC(C)(C)O)n1` . Is its %Inh below 10%?
Result: FALSE

Problem: Here's an entry: `COc1cc2nccc(Nc3ccc(OCc4ccc(NC(C)=O)cc4)cc3)c2cc1OC.Cl` . Is its %Inh below 10%?
Result: TRUE
